Could you please report measured hAM1R EC50 (cAMP) for the items listed next?
molecular target: hAM1R (human, UniProt Q16602); assay: cell-based or functional assay
Numbered stars: 1 amine (or outer) side, 2 acyl side, 3 side chain; on linkers, the order of the positions; unused ones are H or OH. Bridge positions count the residues as written; N and C are the ends. Square brackets hold non-standard residues; d marks the D form. * marks the point of attachment. C20 diacid = O=C(O)CCCCCCCCCCCCCCCCCCC(=O)*; γGlu = O=C(O)[C@H](CCC(=O)[*:2])N[*:1]; Hyp = O=C(O)[C@@H]1C[C@@H](O)CN1

Data request: Consider the binder KCNTATCTVQRLAHQIYQFTDKDKDNVAPRTKVGSNGY [SEQ ID NO: 34] and give its measured hAM1R EC50 (cAMP).
Data returned: 54.6 nM

Data request: Any idea what its hAM1R EC50 (cAMP) is? The binder is {C20 diacid-γGlu}-KCNTLTCTVQRLAHQIYQFTDKDKDNVAPPTNVGSNG[Hyp]-NH2 (disulfide 2-7 (inferred); ends not checked) [SEQ ID NO: 225]
Data returned: > 5000 nM

Data request: Entry GCRFGTCTVQWLAHFLYQFTDKDKDNVAPRTNVGPQGY [SEQ ID NO: 326] has what hAM1R EC50 (cAMP)?
Data returned: > 5000 nM

Data request: Which hAM1R EC50 (cAMP) is listed for GCRTGTCTVQRLAHQIYQFTDKDKDNVAPRTNISPNGY [SEQ ID NO: 188] ?
Data returned: 47.6 nM

Data request: Value lookup for hAM1R EC50 (cAMP); key = {C20 diacid-γGlu}-KCNTATCTVQRLAEQIYQFTAKDKDNVAPPTNVGSNG[Hyp]-NH2 (disulfide 2-7 (inferred); ends not checked) [SEQ ID NO: 106]
Data returned: > 5000 nM
